Test system: M. tuberculosis 27294
PROTOCOL NOTES: In vitro agar dilution assay (MIC), reference strain
Type: cell-based, Mycobacterium tuberculosis
SETTINGS: Table I
Entries and their measured MIC (μg/ml) against M. tuberculosis-27294 follow.
Record the value in µg/mL, omitting the unit from your answer.

Solved cases below.
1. COc1ccccc1N1CCN(Cc2cc(-c3ccccc3)n(NC(=O)c3ccncc3)c2C)CC1 [compound 13] ... 0.5
2. Cc1c(CN2CCN(c3cccc(C(F)(F)F)c3)CC2)cc(-c2ccccc2)n1NC(=O)c1cnccn1 [compound 27] ... 2.0
3. Cc1c(CN2CCN(Cc3ccc4c(c3)OCO4)CC2)cc(-c2ccc(Cl)cc2)n1-c1ccc(Cl)cc1 [Compound No. 8] ... 1.0
4. Cc1c(CN2CCN(c3cccc(C(F)(F)F)c3)CC2)cc(-c2ccccc2)n1NC(=O)c1ccncc1 [Compound No. 12] ... 0.25
5. Cc1c(CN2CCS(=O)(=O)CC2)cc(-c2ccccc2)n1-c1ccccc1 [compound 88] ... 0.5
6. Cc1c(CN2CCN(c3ccc(F)cc3)CC2)cc(-c2ccccc2)n1NC(=O)c1ccncc1 [compound 11] ... 1.0

Q: For Cc1c(CN2CCN(Cc3ccc4c(c3)OCO4)CC2)cc(-c2ccc(Cl)cc2)n1-c1ccc(F)cc1F [compound 50] , write its MIC (μg/ml) against M. tuberculosis-27294.
Result: 2.0

Q: For Cc1cc(CN2CCN(c3cccc(C(F)(F)F)c3)CC2)c(-c2ccccc2)n1NC(=O)c1ccncc1 [Compound No. 23] , write its MIC (μg/ml) against M. tuberculosis-27294.
Result: 0.25

Q: For COc1ccccc1N1CCN(Cc2cc(C)n(-c3cccc4ccccc34)c2-c2ccc(Cl)cc2)CC1 [compound 63] , write its MIC (μg/ml) against M. tuberculosis-27294.
Result: 8.0

Q: For Cc1cc(CN2CCN(c3ccccn3)CC2)c(-c2ccccc2)n1NC(=O)c1cnccn1 [compound 34] , write its MIC (μg/ml) against M. tuberculosis-27294.
Result: 16.0

Q: For Cc1c(CN2CCN(c3ccccn3)CC2)cc(-c2ccc(Cl)cc2)n1-c1cccc2ccccc12 [compound 61] , write its MIC (μg/ml) against M. tuberculosis-27294.
Result: 4.0

---

Tested on: M. tuberculosis 27294
PROTOCOL NOTES: In vitro agar dilution assay (MIC), reference strain
Type: cell-based, Mycobacterium tuberculosis
SETTINGS: Table I
PARAMETER: MIC (μg/ml) against M. tuberculosis-27294

Q: For `Cc1c(CN2CCN(C(c3ccccc3)c3ccccc3)CC2)cc(-c2ccc(Cl)cc2)n1-c1ccc(F)cc1F` , write its MIC (μg/ml) against M. tuberculosis-27294.
Result: >16.0 µg/mL

Q: For `Cc1c(CN2CCN(Cc3ccc4c(c3)OCO4)CC2)cc(-c2ccccc2)n1NC(=O)c1cnccn1` , write its MIC (μg/ml) against M. tuberculosis-27294.
Result: >16.0 µg/mL

Q: For `Cc1c(CN2CCN(Cc3ccc4c(c3)OCO4)CC2)cc(-c2ccc(Cl)cc2)n1-c1cccc2ccccc12` , write its MIC (μg/ml) against M. tuberculosis-27294.
Result: >16.0 µg/mL

---

Test system: M. tuberculosis 27294
PROTOCOL NOTES: In vitro agar dilution assay (MIC), reference strain
Format: cell-based, Mycobacterium tuberculosis
SETTINGS: Table I
PARAMETER: MIC (μg/ml) against M. tuberculosis-27294

1. COc1ccccc1N1CCN(Cc2cc(-c3ccc(Cl)cc3)n(-c3cccc4ccccc34)c2C)CC1 ... >16.0 µg/mL

Q: For `Cc1cc(CN2CCN(c3cccc(C(F)(F)F)c3)CC2)c(-c2ccc(Cl)cc2)n1NC(=O)c1cnccn1` , write its MIC (μg/ml) against M. tuberculosis-27294.
Result: >16.0 µg/mL

Q: For CCC(CO)n1c(C)c(CN2CCSCC2)c(CO)c1-c1ccccc1 (stereo not shown) , write its MIC (μg/ml) against M. tuberculosis-27294.
Result: >16.0 µg/mL

Q: For `COc1ccccc1N1CCN(Cc2cc(C)n(NC(=O)c3cnccn3)c2-c2ccccc2)CC1` , write its MIC (μg/ml) against M. tuberculosis-27294.
Result: >16.0 µg/mL

---

System: M. tuberculosis 27294
PROTOCOL NOTES: In vitro agar dilution assay (MIC), reference strain
Type: cell-based, Mycobacterium tuberculosis
SETTINGS: Table I
PARAMETER: MIC (μg/ml) against M. tuberculosis-27294 (µg/mL)
Record the value in µg/mL, omitting the unit from your answer.

1. Cc1c(CN2CCN(c3ccccn3)CC2)cc(-c2ccccc2)n1NC(=O)c1ccncc1 [compound 14] ... 4.0
2. Cc1c(CN2CCN(C)CC2)cc(-c2ccccc2)n1NC(=O)c1ccncc1 [compound 16] ... 2.0
3. Cc1c(CN2CCSCC2)cc(-c2ccc(Cl)cc2)n1NC(=O)c1ccncc1 [compound 89] ... 1.0
4. Cc1c(CN2CCN(c3ccc(F)cc3)CC2)cc(-c2ccc(Cl)cc2)n1NC(=O)c1cnccn1 [compound 37] ... 16.0

From here, focus on the item given below.
Q: For COc1ccccc1N1CCN(Cc2cc(C)n(NC(=O)c3cnccn3)c2-c2ccc(Cl)cc2)CC1 [compound 42] , write its MIC (μg/ml) against M. tuberculosis-27294.
Result: 8.0
